Tested on: HCT116 WT cells
Experiment: HCT116 WT cell proliferation / viability (CellTiter-Glo, 6 days)
Assay type: cell-based
Conditions: Homo sapiens, HCT-116, 144 h, HCT116 WT cells, 6 days, CellTiter-Glo; read-out: HCT-116 WT IC50
So basically: is IC50 under 4 µM? Then yes (1). Not under? Then no (0).

Input line: API: query returns whether the compound falls strictly under 4 µM in IC50. Query: `COC[C@@H](C)N(Cc1ccc(Cl)nn1)C(=O)c1ccc2nc(N)c3c(c2c1)CO[C@@H]3C`
Output line: yes (1)

Input line: API: query returns whether the compound falls strictly under 4 µM in IC50. Query: `C[C@H](c1ncccn1)N(Cc1ccc(C(F)(F)F)cn1)C(=O)c1cc2c3c(c(N)nc2cc1F)COC3`
Output line: yes (1)

Input line: API: query returns whether the compound falls strictly under 4 µM in IC50. Query: `C[C@H]1OCc2c1c(N)nc1ccc(C(=O)N(Cc3ccc(C(F)(F)F)cn3)C3CC3)cc21`
Output line: yes (1)

Input line: API: query returns whether the compound falls strictly under 4 µM in IC50. Query: `Cn1ncc2c(N)nc3cc(C(F)(F)F)c(C(=O)N(Cc4ccc(C(F)(F)F)nn4)C4CC4)cc3c21`
Output line: no (0)

Input line: API: query returns whether the compound falls strictly under 4 µM in IC50. Query: `CCN(Cc1ccc(Cl)cn1)C(=O)c1ccc2nc(N)c3c(c2c1)CO[C@@H]3C`
Output line: no (0)

Input line: API: query returns whether the compound falls strictly under 4 µM in IC50. Query: `C[C@H]1OCc2c1c(N)nc1ccc(C(=O)N(Cc3ccc(C4CC4)cn3)C3CC3)cc21`
Output line: yes (1)

Input line: API: query returns whether the compound falls strictly under 4 µM in IC50. Query: `Nc1nc2cc(Cl)c(C(=O)N(Cc3ccc(C(F)(F)F)cn3)CC3CC3)cc2c2c1COC2`
Output line: yes (1)

Input line: API: query returns whether the compound falls strictly under 4 µM in IC50. Query: C[C@H](c1ccc(C(F)(F)F)cn1)N(C)C(=O)c1ccc2nc(N)c3cnn(C)c3c2c1 (single isomer, unassigned)
Output line: yes (1)

Input line: API: query returns whether the compound falls strictly under 4 µM in IC50. Query: `CC(C)N(Cc1ccc(C(F)(F)F)cn1)C(=O)c1cc2c3c(c(N)nc2cn1)COC3`
Output line: no (0)

Input line: API: query returns whether the compound falls strictly under 4 µM in IC50. Query: `CCN(Cc1ccc(C(F)(F)F)nc1)C(=O)c1ccc2nc(N)c3c(c2c1)COC3`
Output line: no (0)

Input line: API: query returns whether the compound falls strictly under 4 µM in IC50. Query: `CN(Cc1ccc(F)cn1)C(=O)c1cc2c(cc1F)nc(N)c1cnn(C)c12`
Output line: no (0)

Input line: API: query returns whether the compound falls strictly under 4 µM in IC50. Query: `C[C@H](c1ncccn1)N(Cc1ccc(C(F)F)cn1)C(=O)c1cnc2nc(N)c3c(c2c1)CCC3`
Output line: yes (1)

Input line: API: query returns whether the compound falls strictly under 4 µM in IC50. Query: `CCN(C(=O)c1cc2c3c(c(N)nc2cn1)COC3)[C@@H](c1ccc(C(F)(F)F)nn1)C1CC1`
Output line: no (0)
